Target: HER2 (Homo sapiens, UniProt P04626)
Test: Biacore SPR binding to immobilised HER2
Conditions: immobilised HER2
Parameter: dissociation rate. Scope: all listed entries.

molecule	dissociation rate, s⁻¹
scFv (TCT1067)-MMAF-C5 DAR 5.2 (conjugate) scFv: SGSGGSGQVQLVQSGAEVKKPGESLKISCKGSGYSFTSYWIAWVRQMPGKGLEYMGLIYPGDSDTKYSPSFQGQVTISVDKSVSTAYLQWSSLKPSDSAVYFCARHDVGYCTDRTCAAWPEWLGVWGQGTLVTVSSGGGGSGGGGSGGGGSQSVLTQPPSVSAAPGQKVTISCSGSSSNIGNNYVSWYQQLPGTAPKLLIYGHTNRPAGVPDRFSGSKSGTSASLAISGFRSEDEADYYCASWDYTLSGWVFGGGTKLTVLMASMTGGQQMG	3.4e-05
scFv (TCT)-MMAF-C5 DAR 6.8 (conjugate) scFv: SGSGGSGQVQLVQSGAEVKKPGESLKISCKGSGYSFTSYWIAWVRQMPGKGLEYMGLIYPGDSDTKYSPSFQGQVTISVDKSVSTAYLQWSSLKPSDSAVYFCARHDVGYCSSSNCAAWPEYFQHWGQGTLVTVSSGGGGSGGGGSGGGGSQSVLTQPPSVSAAPGQKVTISCSGSSSNIGNNYVSWYQQLPGTAPKLLIYGHTNRPAGVPDRFSGSKSGTSASLAISGFRSEDEADYYCAAWDDSLSGWVFGGGTKLTVLMASMTGGQQMG	0.0042
scFv (TCT1067)-P5-C5 DAR 10.9 (conjugate) scFv: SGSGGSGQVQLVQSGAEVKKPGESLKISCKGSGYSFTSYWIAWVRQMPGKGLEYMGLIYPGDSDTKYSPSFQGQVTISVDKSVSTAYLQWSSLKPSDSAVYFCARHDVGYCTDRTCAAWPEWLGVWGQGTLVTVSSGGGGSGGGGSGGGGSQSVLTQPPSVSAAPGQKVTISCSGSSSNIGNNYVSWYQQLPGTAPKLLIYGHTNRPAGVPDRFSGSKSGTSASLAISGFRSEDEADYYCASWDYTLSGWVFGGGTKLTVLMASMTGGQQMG	7.13e-05
scFv (TCT): anti-HER2 scFv: Tev cleavage site, C6.5, T7 tag; SEQ ID NO: 2 (protein, Amino Acid sequence of cleaved TCT) scFv: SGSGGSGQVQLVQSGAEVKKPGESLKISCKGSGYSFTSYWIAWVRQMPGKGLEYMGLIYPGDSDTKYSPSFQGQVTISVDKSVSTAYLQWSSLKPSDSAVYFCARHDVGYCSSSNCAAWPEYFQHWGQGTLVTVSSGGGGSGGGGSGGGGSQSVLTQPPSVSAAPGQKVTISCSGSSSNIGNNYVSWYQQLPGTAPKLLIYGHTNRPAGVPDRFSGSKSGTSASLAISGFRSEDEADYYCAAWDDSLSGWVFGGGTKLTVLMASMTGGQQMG	0.00417
scFv (TCT1067)-Auristatin-F-C5 DAR 11.9 (conjugate) scFv: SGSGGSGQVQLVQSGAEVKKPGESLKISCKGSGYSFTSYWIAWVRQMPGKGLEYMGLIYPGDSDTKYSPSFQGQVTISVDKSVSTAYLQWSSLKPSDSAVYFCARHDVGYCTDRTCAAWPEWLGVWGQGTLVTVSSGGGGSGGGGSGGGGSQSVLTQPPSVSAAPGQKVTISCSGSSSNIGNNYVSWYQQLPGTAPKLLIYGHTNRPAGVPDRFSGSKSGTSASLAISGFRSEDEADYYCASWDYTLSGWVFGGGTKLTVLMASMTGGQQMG	1.76e-05
scFv (TCT1067)-Auristatin-F-C5 DAR 5.65 (conjugate) scFv: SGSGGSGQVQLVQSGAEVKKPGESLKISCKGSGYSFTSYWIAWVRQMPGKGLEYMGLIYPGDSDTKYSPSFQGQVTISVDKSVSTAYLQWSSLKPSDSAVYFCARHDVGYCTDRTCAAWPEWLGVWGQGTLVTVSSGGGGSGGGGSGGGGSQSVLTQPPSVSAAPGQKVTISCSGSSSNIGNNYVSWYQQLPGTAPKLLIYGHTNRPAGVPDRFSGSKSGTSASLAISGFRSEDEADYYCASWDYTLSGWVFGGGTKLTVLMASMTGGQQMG	1.35e-05
scFv (TCT1067)-DM1-dPEG12 DAR 8 (conjugate) scFv: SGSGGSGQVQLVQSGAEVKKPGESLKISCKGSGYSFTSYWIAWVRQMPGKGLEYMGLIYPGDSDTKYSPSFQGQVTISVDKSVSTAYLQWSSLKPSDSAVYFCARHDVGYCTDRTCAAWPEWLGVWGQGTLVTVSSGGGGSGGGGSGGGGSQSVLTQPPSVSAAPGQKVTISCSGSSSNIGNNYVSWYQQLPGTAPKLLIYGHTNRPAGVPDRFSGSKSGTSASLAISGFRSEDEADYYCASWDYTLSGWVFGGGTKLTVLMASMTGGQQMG	3.28e-05
scFv (TCT1067)-Acetate DAR 16 (conjugate) scFv: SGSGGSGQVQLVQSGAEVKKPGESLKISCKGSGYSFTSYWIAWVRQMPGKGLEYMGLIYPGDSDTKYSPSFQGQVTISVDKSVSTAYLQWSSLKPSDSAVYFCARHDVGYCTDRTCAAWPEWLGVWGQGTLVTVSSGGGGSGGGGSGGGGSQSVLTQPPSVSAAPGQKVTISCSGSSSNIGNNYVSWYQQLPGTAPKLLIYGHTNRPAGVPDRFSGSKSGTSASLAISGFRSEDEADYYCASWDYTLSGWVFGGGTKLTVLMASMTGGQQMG	7.64e-05
